tested on: XF 498 CNS; experiment: NCI tumour cell line growth inhibition, 48 h

{"molecule": "Clc1ccccc1/C=C/c1cscn1", "TGI": "> 100 µM"}
{"molecule": "CCCS(=O)(=O)/C(=C(\\c1ccc(Br)cc1)S(=O)(=O)CCC)c1ccc(Br)cc1", "TGI": "> 10 µM"}
{"molecule": "COc1ccc2c3c(coc13)C(CCC(=O)O)CC2 (stereo not drawn)", "TGI": "> 100 µM"}

* * *

// reported GI50 per item
test system: SF-295 CNS; test: NCI tumour cell line growth inhibition, 48 h

{"compound": "COc1cc(NS(=O)(=O)c2ccc(-c3cnc(C4CC4)o3)cc2)ccc1F", "GI50": "205 nM"}
{"compound": "O=C1NN(C2=NNC3(C(=O)N2)c2ccccc2-c2ccccc23)C(c2ccccc2)=N/C1=C/c1ccc(O)cc1", "GI50": "56.9 µg/mL"}
{"compound": "Cc1ccc(C(=O)Nc2ccc(CN3CCN(C)CC3)c(C(F)(F)F)c2)cc1C#Cc1cnc(N)c2ccccc12", "GI50": "785 nM"}
{"compound": "COc1ccc(C2SCC(=O)N2NC(=O)Nc2c(C)nc3ccccn23)cc1 (stereo not given)", "GI50": "24500 nM"}
{"compound": "N#Cc1cccc(NC(=O)c2cc(-c3ccc(F)cc3F)ccc2O)c1", "GI50": "2160 nM"}
{"compound": "COc1ccccc1Cn1cc2c(c1-c1ccccc1)CCc1cnoc1-2", "GI50": "1090 nM"}
{"compound": "C/C(=N\\Nc1ccc(Cl)cn1)c1ccccn1", "GI50": "262 nM"}
{"compound": "COc1cc2c3c(n(CCNCCCNCCn4c5c(c6cc(OC)c(OC)cc6c4=O)C(=O)c4ccccc4-5)c(=O)c2cc1OC)-c1ccccc1C3=O", "GI50": "105 nM"}
{"compound": "NCCCn1c2c(c3ccc([N+](=O)[O-])cc3c1=O)C(=O)c1cc(Br)ccc1-2", "GI50": "163 nM"}
{"compound": "COC(=O)[C@H](Cc1c[nH]c2ccccc12)NC(=O)[C@@H](OC)[C@@H]1Cc2cc3cc(OC4CC(OC5CC(O)C(O)C(C)O5)C(O)C(C)O4)c(C)c(O)c3c(O)c2C(=O)[C@H]1OC1CC(OC2CC(OC3CC(C)(O)C(O)C(C)O3)C(O)C(C)O2)C(O)C(C)O1 (stereo not given in full)", "GI50": "11.2 nM"}

Values were extracted from PubChem BioAssay (NCI).
